- ASSAY_NAME: Equilibrium solubility in pH buffers (3.0-8.0), 20% captisol and water
- Assay type: physicochemical
- APPLIED_CONDITIONS: pH = 8.0 buffer (50 mM phosphate), 24 hrs
Structures can show the parent of a compound that is named as a salt.
I'd appreciate it if you could supply pH of supernatant (final pH) values for the items below.
Answers are plain numbers.

These solved cases illustrate the format of a correct answer.
>  <COMPOUND>
CC(=O)NCC1CCN(Cc2cc(Oc3ccc(N4CCN(CCC(=O)O)CC4)nc3)nc(-c3cc(Cl)cc(Cl)c3)c2)CC1 [Sulfate Type B]

>  <pH of supernatant (final pH)>
6.9

$$$$
>  <COMPOUND>
CC(=O)NCC1CCN(Cc2cc(Oc3ccc(N4CCN(CCC(=O)O)CC4)nc3)nc(-c3cc(Cl)cc(Cl)c3)c2)CC1 [HCl salt Type F]

>  <pH of supernatant (final pH)>
7.2

$$$$
>  <COMPOUND>
CC(=O)NCC1CCN(Cc2cc(Oc3ccc(N4CCN(CCC(=O)O)CC4)nc3)nc(-c3cc(Cl)cc(Cl)c3)c2)CC1 [Fumarate Type A]

>  <pH of supernatant (final pH)>
7.2

$$$$

Note: attention shifts to another entry.
*Q* Could you share which pH of supernatant (final pH) value was measured for CC(=O)NCC1CCN(Cc2cc(Oc3ccc(N4CCN(CCC(=O)O)CC4)nc3)nc(-c3cc(Cl)cc(Cl)c3)c2)CC1 [Freeform Type A] ?
*A* 8.0

---

- ASSAY_NAME: Equilibrium solubility in pH buffers (3.0-8.0), 20% captisol and water
- Format: physicochemical
- APPLIED_CONDITIONS: pH = 3.0 buffer (50 mM HCl + KCl), 24 hrs
Where a name gives a salt, the structure may show the parent alone.
MEASUREMENT_TYPE: pH of supernatant (final pH)
Answers are plain numbers.

>  <COMPOUND>
CC(=O)NCC1CCN(Cc2cc(Oc3ccc(N4CCN(CCC(=O)O)CC4)nc3)nc(-c3cc(Cl)cc(Cl)c3)c2)CC1 [Fumarate Type A]

>  <pH of supernatant (final pH)>
3.5

$$$$
>  <COMPOUND>
CC(=O)NCC1CCN(Cc2cc(Oc3ccc(N4CCN(CCC(=O)O)CC4)nc3)nc(-c3cc(Cl)cc(Cl)c3)c2)CC1 [Freeform Type A]

>  <pH of supernatant (final pH)>
6.3

$$$$
>  <COMPOUND>
CC(=O)NCC1CCN(Cc2cc(Oc3ccc(N4CCN(CCC(=O)O)CC4)nc3)nc(-c3cc(Cl)cc(Cl)c3)c2)CC1 [Sulfate Type B]

>  <pH of supernatant (final pH)>
2.3

$$$$

*Q* Could you share which pH of supernatant (final pH) value was measured for CC(=O)NCC1CCN(Cc2cc(Oc3ccc(N4CCN(CCC(=O)O)CC4)nc3)nc(-c3cc(Cl)cc(Cl)c3)c2)CC1 [HCl salt Type F] ?
*A* 2.7

---

- ASSAY_NAME: Equilibrium solubility in pH buffers (3.0-8.0), 20% captisol and water
- Type: physicochemical
- APPLIED_CONDITIONS: 50 mM pH buffers, pH 3.0-8.0, 21 °C, pH 3, aqueous buffer, thermodynamic from solid, 50 mM pH buffers pH 3.0-8.0, RT, 24 hrs; read-out: solubility in pH buffers (overall bound)
Counter-ions that a name gives are not always drawn.
MEASUREMENT_TYPE: solubility at 24 h

*Q* Could you share which solubility at 24 h value was measured for CC(=O)NCC1CCN(Cc2cc(Oc3ccc(N4CCN(CCC(=O)O)CC4)nc3)nc(-c3cc(Cl)cc(Cl)c3)c2)CC1 [HCl salt Type F] ?
*A* < 8000 µg/mL

---

- ASSAY_NAME: Solubility profile of freeform Type D in citrate buffers
- Type: physicochemical
- APPLIED_CONDITIONS: 50 mM citrate buffer, pH 4.89, aqueous buffer, thermodynamic from solid; read-out: Solubility
MEASUREMENT_TYPE: solubility at 24 h (mg/mL)
One number for each entry, in mg/mL.

*Q* Could you share which solubility at 24 h value was measured for CC(=O)NCC1CCN(Cc2cc(Oc3ccc(N4CCN(CCC(=O)O)CC4)nc3)nc(-c3cc(Cl)cc(Cl)c3)c2)CC1 [Freeform Type D] ?
*A* 13.2

---

- ASSAY_NAME: Solubility profile of freeform Type D in citrate buffers
- Type: physicochemical
- APPLIED_CONDITIONS: aqueous buffer, thermodynamic from solid; 20 mM citrate buffer, buffer pH 4.60, RT, 24 hours, end pH 4.91; read-out: Solubility
MEASUREMENT_TYPE: solubility at 24 h (µg/mL)
Give bare numbers, in µg/mL.

*Q* Could you share which solubility at 24 h value was measured for CC(=O)NCC1CCN(Cc2cc(Oc3ccc(N4CCN(CCC(=O)O)CC4)nc3)nc(-c3cc(Cl)cc(Cl)c3)c2)CC1 [Freeform Type D] ?
*A* 2300

---

I'd appreciate it if you could supply S: solubility values for the items below.
- ASSAY_NAME: Equilibrium solubility in pH buffers (3.0-8.0), 20% captisol and water
- Assay type: physicochemical
- APPLIED_CONDITIONS: pH = 5.0 buffer (50 mM citrate), RT, 24 hrs
Where a name gives a salt, the structure may show the parent alone.
One number for each entry, in mg/mL.

These solved cases illustrate the format of a correct answer.
>  <COMPOUND>
CC(=O)NCC1CCN(Cc2cc(Oc3ccc(N4CCN(CCC(=O)O)CC4)nc3)nc(-c3cc(Cl)cc(Cl)c3)c2)CC1 [Freeform Type A]

>  <TEST_RESULT>
3.31

$$$$
>  <COMPOUND>
CC(=O)NCC1CCN(Cc2cc(Oc3ccc(N4CCN(CCC(=O)O)CC4)nc3)nc(-c3cc(Cl)cc(Cl)c3)c2)CC1 [HCl salt Type F]

>  <TEST_RESULT>
2.64

$$$$

Note: attention shifts to another entry.
*Q* Could you share which S: solubility value was measured for CC(=O)NCC1CCN(Cc2cc(Oc3ccc(N4CCN(CCC(=O)O)CC4)nc3)nc(-c3cc(Cl)cc(Cl)c3)c2)CC1 [Fumarate Type A] ?
*A* 7.79

---

- ASSAY_NAME: Equilibrium solubility in pH buffers (3.0-8.0), 20% captisol and water
- Format: physicochemical
- APPLIED_CONDITIONS: pH = 5.0 buffer (50 mM citrate), 24 hrs
I'd appreciate it if you could supply FC: form change (XRPD of precipitate) values for the items below.

>  <MOLECULE>
CC(=O)NCC1CCN(Cc2cc(Oc3ccc(N4CCN(CCC(=O)O)CC4)nc3)nc(-c3cc(Cl)cc(Cl)c3)c2)CC1 [Fumarate Type A]

>  <MEASUREMENT_TYPE>
FC: form change (XRPD of precipitate)

>  <TEST_RESULT>
4 (1/2/3/4/5: new Form 1/2/3/4/5)

$$$$

*Q* Could you share which FC: form change (XRPD of precipitate) value was measured for CC(=O)NCC1CCN(Cc2cc(Oc3ccc(N4CCN(CCC(=O)O)CC4)nc3)nc(-c3cc(Cl)cc(Cl)c3)c2)CC1 [Sulfate Type B] ?
*A* 3 (1/2/3/4/5: new Form 1/2/3/4/5)

---

- ASSAY_NAME: Equilibrium solubility in pH buffers (3.0-8.0), 20% captisol and water
- Assay type: physicochemical
- APPLIED_CONDITIONS: H2O, 24 hrs
Structures can show the parent of a compound that is named as a salt.
I'd appreciate it if you could supply pH of supernatant (final pH) values for the items below.
Numbers only.

These solved cases illustrate the format of a correct answer.
>  <COMPOUND>
CC(=O)NCC1CCN(Cc2cc(Oc3ccc(N4CCN(CCC(=O)O)CC4)nc3)nc(-c3cc(Cl)cc(Cl)c3)c2)CC1 [Sulfate Type B]

>  <pH of supernatant (final pH)>
2.4

$$$$
>  <COMPOUND>
CC(=O)NCC1CCN(Cc2cc(Oc3ccc(N4CCN(CCC(=O)O)CC4)nc3)nc(-c3cc(Cl)cc(Cl)c3)c2)CC1 [HCl salt Type F]

>  <pH of supernatant (final pH)>
2.4

$$$$
>  <COMPOUND>
CC(=O)NCC1CCN(Cc2cc(Oc3ccc(N4CCN(CCC(=O)O)CC4)nc3)nc(-c3cc(Cl)cc(Cl)c3)c2)CC1 [Fumarate Type A]

>  <pH of supernatant (final pH)>
3.8

$$$$

Note: attention shifts to another entry.
*Q* Could you share which pH of supernatant (final pH) value was measured for CC(=O)NCC1CCN(Cc2cc(Oc3ccc(N4CCN(CCC(=O)O)CC4)nc3)nc(-c3cc(Cl)cc(Cl)c3)c2)CC1 [Freeform Type A] ?
*A* 6.8

---

- ASSAY_NAME: Equilibrium solubility in pH buffers (3.0-8.0), 20% captisol and water
- Assay type: physicochemical
- APPLIED_CONDITIONS: pH = 4.0 buffer (50 mM citrate), RT, 24 hrs
Where a name gives a salt, the structure may show the parent alone.
MEASUREMENT_TYPE: S: solubility (mg/mL)
Answers are plain numbers, in mg/mL.

>  <COMPOUND>
CC(=O)NCC1CCN(Cc2cc(Oc3ccc(N4CCN(CCC(=O)O)CC4)nc3)nc(-c3cc(Cl)cc(Cl)c3)c2)CC1 [HCl salt Type F]

>  <MEASUREMENT_TYPE>
S: solubility

>  <TEST_RESULT>
1.12

$$$$

Note: attention shifts to another entry.
*Q* Could you share which S: solubility value was measured for CC(=O)NCC1CCN(Cc2cc(Oc3ccc(N4CCN(CCC(=O)O)CC4)nc3)nc(-c3cc(Cl)cc(Cl)c3)c2)CC1 [Sulfate Type B] ?
*A* 2.33
